# credit: the supplement of paper PMC6555819

Measured PBM binding z-score of individual entries
# Test system: PPARg:RXRa IVT, anti-PPARg (NR concentration 270 nM, RXRa partner concentration 90 nM)
# experimentalProtocol: PBM binding z-score (relative to random genomic background probes); higher = stronger binding; sequences stand for … in GC…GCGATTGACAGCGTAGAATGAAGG
Reply with just the number.

| sequenceString | PBM binding z-score |
| --- | --- |
| CCTACTGGGCCAAACGTCATTGATTCCAATGCTC | 3.97 |
| ACTAGTTCGTCAGCTGAGGTCACACACAATTCGG | 2.22 |
| CGTCCAGGGTCAAAGGTCAGTGAAGAGATGACGG | 5.28 |

Next:
Ask: # get_value(readout='PBM binding z-score', item= ATCTCGAGGTAAGACTCAGTTCAGTGAAGAACGC )
Result: 0.378

* * *

# System: PPARg DBDmut IVT, anti-PPARg (DBD mutation: PPARg1 K132A/R137A, NR concentration 270 nM)
# experimentalProtocol: PBM binding z-score (relative to random genomic background probes); higher = stronger binding; sequences stand for … in GC…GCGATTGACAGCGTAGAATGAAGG
Measured PBM binding z-score of individual entries
Reply with just the number.

| sequenceString | PBM binding z-score |
| --- | --- |
| CCTACTGGGCAAAGGTCATTGATCAGTCAAAGCA | -0.183 |
| GATACAGGGTCAAGGCCAGAGAACGCGTATTGAT | -0.524 |
| TTACCAAGGTGAGCTGAGGTCATTGATCCAACTC | -0.0839 |
| TTACCAAGGTGATAGGTCGTTGATGCACGCCTTG | 0.413 |
| ATCTATAGGTAAAAGTTCAGTGAATCCCGAGGAT | 1.92 |

Ask: Fill in the recorded PBM binding z-score for this sequence, with PPARg DBDmut IVT, anti-PPARg (DBD mutation: PPARg1 K132A/R137A, NR concentration 270 nM) as test system: CGAACGAGGGCATGAGTTGATAGCGAATGCCGAT
Result: -0.415

Ask: Fill in the recorded PBM binding z-score for this sequence, with PPARg DBDmut IVT, anti-PPARg (DBD mutation: PPARg1 K132A/R137A, NR concentration 270 nM) as test system: ATATGTCGGTTACATCCGGGTCATTCAGGCTATG
Result: 1.84

* * *

# Test system: FXR:RXRa (NR concentration 270 nM, RXRa partner concentration 90 nM)
# experimentalProtocol: PBM binding z-score (relative to random genomic background probes); higher = stronger binding; sequences stand for … in GC…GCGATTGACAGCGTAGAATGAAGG
Output: class label from PBM binding z-score. Mapping: class 1 (below 0.7), class 2 (0.7 to below 3), class 3 (3 or more)

| sequenceString | tgt | classAssignment |
| --- | --- | --- |
| TCTTGTAGATCAAAGGTTAACAAAGCCGAAGCCT | FXR:RXRa (NR concentration 270 nM, RXRa partner concentration 90 nM) | class 2 |
| GCTTGCAGATCAAGGTTAAGAAAGACTAAGCTAA | FXR:RXRa (NR concentration 270 nM, RXRa partner concentration 90 nM) | class 1 |
| ACTAGCAGGCCAAGGGGCACTCAAGATTAGTCCG | FXR:RXRa (NR concentration 270 nM, RXRa partner concentration 90 nM) | class 1 |
| TATACAGGTTCAAAGGCCAGAGTACGAATGTCGA | FXR:RXRa (NR concentration 270 nM, RXRa partner concentration 90 nM) | class 3 |
| TAGAGTAGGTTAGGGGCATTCAGAATGGCGTCGA | FXR:RXRa (NR concentration 270 nM, RXRa partner concentration 90 nM) | class 2 |
| ATCTCTAGTTAAAAGTTCAGTGAATCCCGAGGAT | FXR:RXRa (NR concentration 270 nM, RXRa partner concentration 90 nM) | class 1 |
| AGAATGAGGTTACCAAAGATCAGGGAAACGCTTG | FXR:RXRa (NR concentration 270 nM, RXRa partner concentration 90 nM) | class 2 |
| CTCGAAAGGTCGTTTGAGGTGAGTATACGGATAA | FXR:RXRa (NR concentration 270 nM, RXRa partner concentration 90 nM) | class 3 |
| CCTACTGGGCCAAACAGGTCATTGATGCCGATAA | FXR:RXRa (NR concentration 270 nM, RXRa partner concentration 90 nM) | class 1 |
| CGAACTAGGTCATTGACAGGACAGTGAGTAGTAA | FXR:RXRa (NR concentration 270 nM, RXRa partner concentration 90 nM) | class 3 |

Here's the next entry for you.
Ask: Class (by measured PBM binding z-score) for CGTCCCAGGTCAAGGTCAGTGAAAGAGACTCGAA
Result: class 3
